Values compiled from patent US5091367A.

assay: solubility in a neutral buffer used for nasal application; conditions: well compatible neutral buffer as used for nasal application of protirelin
Property label: Solubility in neutral nasal buffer (µg/mL)
Respond with the bare value in µg/mL.

// Input: `CCNC(=O)[C@@H]1CCCN1C(=O)[C@H](CCCNC(=N)N)NC(=O)[C@H](CO[C@@H]1O[C@H](CO)[C@@H](O)[C@H](O)[C@H]1O)NC(=O)[C@@H](Cc1c[nH]c2ccccc12)NC(=O)[C@H](Cc1ccc(O)cc1)NC(=O)[C@H](CO)NC(=O)[C@H](Cc1c[nH]c2ccccc12)NC(=O)[C@H](Cc1c[nH]cn1)NC(=O)[C@@H]1CCC(=O)N1` . Output its Solubility in neutral nasal buffer only.
2500

// Input: `CCNC(=O)[C@@H]1CCCN1C(=O)[C@H](CCCNC(=N)N)NC(=O)[C@H](CC(C)C)NC(=O)[C@@H](CO[C@@H]1O[C@H](CO)[C@@H](O)[C@H](O)[C@H]1O)NC(=O)[C@H](Cc1ccc(O)cc1)NC(=O)[C@H](CO)NC(=O)[C@H](Cc1c[nH]c2ccccc12)NC(=O)[C@H](Cc1c[nH]cn1)NC(=O)[C@@H]1CCC(=O)N1` . Output its Solubility in neutral nasal buffer only.
125000

// Input: `CCNC(=O)[C@@H]1CCCN1C(=O)[C@H](CCCNC(=N)N)NC(=O)[C@H](CO[C@H]1O[C@@H](C)[C@@H](O)[C@@H](O)[C@@H]1O)NC(=O)[C@@H](Cc1c[nH]c2ccccc12)NC(=O)[C@H](Cc1ccc(O)cc1)NC(=O)[C@H](CO)NC(=O)[C@H](Cc1c[nH]c2ccccc12)NC(=O)[C@H](Cc1c[nH]cn1)NC(=O)[C@@H]1CCC(=O)N1` . Output its Solubility in neutral nasal buffer only.
2500

// Input: `CCNC(=O)[C@@H]1CCCN1C(=O)[C@H](CCCNC(=N)N)NC(=O)[C@H](CC(C)C)NC(=O)[C@@H](CO[C@H]1O[C@H](CO)[C@@H](O)[C@H](O)[C@@H]1O)NC(=O)[C@H](Cc1ccc(O)cc1)NC(=O)[C@H](CO)NC(=O)[C@H](Cc1c[nH]c2ccccc12)NC(=O)[C@H](Cc1c[nH]cn1)NC(=O)[C@@H]1CCC(=O)N1` . Output its Solubility in neutral nasal buffer only.
62500

// Input: `CCNC(=O)[C@@H]1CCCN1C(=O)[C@H](CCCNC(=N)N)NC(=O)[C@H](CC(C)C)NC(=O)[C@@H](CO[C@H]1O[C@@H](C)[C@@H](O)[C@@H](O)[C@@H]1O)NC(=O)[C@H](Cc1ccc(O)cc1)NC(=O)[C@H](CO)NC(=O)[C@H](Cc1c[nH]c2ccccc12)NC(=O)[C@H](Cc1c[nH]cn1)NC(=O)[C@@H]1CCC(=O)N1` . Output its Solubility in neutral nasal buffer only.
167000

// Input: `CCNC(=O)[C@@H]1CCCN1C(=O)[C@H](CCCNC(=N)N)NC(=O)[C@H](CO[C@H]1O[C@H](CO)[C@@H](O)[C@H](O)[C@@H]1O)NC(=O)[C@@H](Cc1c[nH]c2ccccc12)NC(=O)[C@H](Cc1ccc(O)cc1)NC(=O)[C@H](CO)NC(=O)[C@H](Cc1c[nH]c2ccccc12)NC(=O)[C@H](Cc1c[nH]cn1)NC(=O)[C@@H]1CCC(=O)N1` . Output its Solubility in neutral nasal buffer only.
3300

// Input: CCNC(=O)[C@@H]1CCCN1C(=O)[C@H](CCCNC(=N)N)NC(=O)[C@H](CC(C)C)NC(=O)[C@@H](COC(C)(C)C)NC(=O)[C@H](Cc1ccc(O)cc1)NC(=O)[C@H](CO)NC(=O)[C@H](Cc1c[nH]c2ccccc12)NC(=O)[C@H](Cc1cnc[nH]1)NC(=O)[C@@H]1CCC(=O)N1 [Buserelin, reference compound] . Output its Solubility in neutral nasal buffer only.
1250

###

system: rat super-ovulation; test: biological activity in rat super-ovulation; type: in vivo
Property label: ED20-50 Super-ovul.

// Input: Pgl-His-Trp-Ser-Tyr-D-Trp-Ser(β-D-Glc-NAc)-Arg-Pro-NH-C2 H5 . Output its ED20-50 Super-ovul. only.
> 24 ng/rat

// Input: Pgl-His-Trp-Ser-Tyr-D-Trp-Ser(Ac-α-D-Man)-Arg-Pro-NH-C2 H5 . Output its ED20-50 Super-ovul. only.
> 24 ng/rat

// Input: Pgl-His-Trp-Ser-Tyr-D-Trp-Ser(β-Lac)-Arg-Pro-NH-C2 H5 . Output its ED20-50 Super-ovul. only.
< 48 ng/rat

###

Consider the following substances; for each one, report its Solubility in neutral nasal buffer.
experiment: solubility in a neutral buffer used for nasal application; conditions: well compatible neutral buffer as used for nasal application of protirelin
Respond with the bare value in mg/mL.

// Input: Pgl-His-Trp-Ser-Tyr-D-Ser(Ac-α-L-Rha)-Leu-Arg-Pro-NH-C2 H5 . Output its Solubility in neutral nasal buffer only.
50.0

// Input: Pgl-His-Trp-Ser-Tyr-D-Trp-Ser(Ac-β-L-Fuc)-Arg-Pro-NH-C2 H5 . Output its Solubility in neutral nasal buffer only.
10.0

// Input: Pgl-His-Trp-Ser-Tyr-D-Trp-Ser(β-Lac)-Arg-Pro-NH-C2 H5 . Output its Solubility in neutral nasal buffer only.
167

// Input: Pgl-His-Trp-Ser-Tyr-D-Ser(α-L-Rha)-Leu-Arg-Pro-NH-C2 H5 . Output its Solubility in neutral nasal buffer only.
167.0

// Input: Pgl-His-Trp-Ser-Tyr-D-Trp-Ser(Ac-α-L-Rha)-Arg-Pro-NH-C2 H5 . Output its Solubility in neutral nasal buffer only.
0.5

// Input: Pgl-His-Trp-Ser-Tyr-D-Ser(D-Ara)-Leu-Arg-Pro-NH-C2 H5 . Output its Solubility in neutral nasal buffer only.
125

// Input: Pgl-His-Trp-Ser-Tyr-D-Trp-Ser(Ac2 -α-D-Man)-Arg-Pro-NH-C2 H5 . Output its Solubility in neutral nasal buffer only.
10.0

// Input: Pgl-His-Trp-Ser-Tyr-D-Trp-Ser(β-L-Xyl)-Arg-Pro-NH-C2 H5 . Output its Solubility in neutral nasal buffer only.
1.1

// Input: Pgl-His-Trp-Ser-Tyr-D-Ser(Ac-β-L-Fuc)-Leu-Arg-Pro-NH-C2 H5 . Output its Solubility in neutral nasal buffer only.
10.0

// Input: Pgl-His-Trp-Ser-Tyr-D-Trp-Ser(Ac-β-D-Glc)-Arg-Pro-NH-C2 H5 . Output its Solubility in neutral nasal buffer only.
2.5

// Input: Pgl-His-Trp-Ser-Tyr-D-Ser(D-Rib)-Leu-Arg-Pro-NH-C2 H5 . Output its Solubility in neutral nasal buffer only.
10

// Input: Pgl-His-Trp-Ser-Tyr-D-Trp-Ser(Ac2 -β-L-Fuc)-Arg-Pro-NH-C2 H5 . Output its Solubility in neutral nasal buffer only.
3.3

// Input: Pgl-His-Trp-Ser-Tyr-D-Trp-Ser(Ac-β-D-Xyl)-Arg-Pro-NH-C2 H5 . Output its Solubility in neutral nasal buffer only.
2.5

// Input: Pgl-His-Trp-Ser-Tyr-D-Trp-Ser(α-L-Rha)-Arg-Pro-NH-C2 H5 . Output its Solubility in neutral nasal buffer only.
1.4

// Input: Pgl-His-Trp-Ser-Tyr-D-Trp-Ser(L-Ara)-Arg-Pro-NH-C2 H5 . Output its Solubility in neutral nasal buffer only.
1.25

###

Consider the following substances; for each one, report its ED20-50 Super-ovul..
system: rat super-ovulation; assay: biological activity in rat super-ovulation; assay type: in vivo
Respond with the bare value in ng/rat.

Send back rat super-ovulation ED20-50 Super-ovul. of Pgl-His-Trp-Ser-Tyr-D-Trp-Ser(β-D-Xyl)-Arg-Pro-NH-C2 H5 only.
6

Send back rat super-ovulation ED20-50 Super-ovul. of Pgl-His-Trp-Ser-Tyr-D-Ser(β-Lac)-Leu-Arg-Pro-NH-C2 H5 only.
12
